Numbers sourced from patent US20250066745A1.

# Assay: Luminescence activity assay of purified Gaussia luciferase mutants on coelenterazine
# Type: biochemical
# Parameters: key: ratio of mutant luminescence intensity to wild-type Gaussia luciferase
# Protocol conditions: Substrate CTZ (Table 16)
Response field label takes true when Activity of mutant relative to wild-type Gaussia luciferase without the signal peptide is strictly below 0.9 and false in all other cases.

Worked examples follow.
{"Molecule": "Q152K Q163D S170N G174K Q175E K178T A182L G183A: Gaussia luciferase mutant (protein, SIGNAL (1)..(17), Gaussia luciferase mutant) MGVKVLFALICIAVAEAKPTENNEDFNIVAVASNFATTDLDADRGKLPGKKLPLEVLKEMEANARKAGCTRGCLICLSHIKCTPKMKKFIPGRCHTYEGDKESAQGGIGEAIVDIPEIPGFKDLEPMEQFIAQVDLCVDCTTGCLKGLANVKCSDLLKKWLPDRCATFANKIQKEVDTIKGLAGD", "Assigned label": "false"}
{"Molecule": "Q152H Q163S T167G S170V G174N G183A: Gaussia luciferase mutant (protein, SIGNAL (1)..(17), Gaussia luciferase mutant) MGVKVLFALICIAVAEAKPTENNEDFNIVAVASNFATTDLDADRGKLPGKKLPLEVLKEMEANARKAGCTRGCLICLSHIKCTPKMKKFIPGRCHTYEGDKESAQGGIGEAIVDIPEIPGFKDLEPMEQFIAQVDLCVDCTTGCLKGLANVHCSDLLKKWLPSRCAGFAVKIQNQVDKIKGAAGD", "Assigned label": "true"}
{"Molecule": "F26A N27D V29R A30G A32E S33G A36P L40A: Gaussia luciferase mutant (protein, SIGNAL (1)..(17), Gaussia luciferase mutant) MGVKVLFALICIAVAEAKPTENNEDADIRGVEGNFPTTDADADRGKLPGKKLPLEVLKEMEANARKAGCTRGCLICLSHIKCTPKMKKFIPGRCHTYEGDKESAQGGIGEAIVDIPEIPGFKDLEPMEQFIAQVDLCVDCTTGCLKGLANVQCSDLLKKWLPQRCATFASKIQGQVDKIKGAGGD", "Assigned label": "true"}
{"Molecule": "K66R P84L E102D S103T E110A V138E: Gaussia luciferase mutant (protein, SIGNAL (1)..(17), Gaussia luciferase mutant) MGVKVLFALICIAVAEAKPTENNEDFNIVAVASNFATTDLDADRGKLPGKKLPLEVLKEMEANARRAGCTRGCLICLSHIKCTLKMKKFIPGRCHTYEGDKDTAQGGIGAAIVDIPEIPGFKDLEPMEQFIAQVDLCEDCTTGCLKGLANVQCSDLLKKWLPQRCATFASKIQGQVDKIKGAGGD", "Assigned label": "true"}
{"Molecule": "F26G N27Y A30D V31L A32V S33R A36M T37E L40G: Gaussia luciferase mutant (protein, SIGNAL (1)..(17), Gaussia luciferase mutant) MGVKVLFALICIAVAEAKPTENNEDGYIVDLVRNFMETDGDADRGKLPGKKLPLEVLKEMEANARKAGCTRGCLICLSHIKCTPKMKKFIPGRCHTYEGDKESAQGGIGEAIVDIPEIPGFKDLEPMEQFIAQVDLCVDCTTGCLKGLANVQCSDLLKKWLPQRCATFASKIQGQVDKIKGAGGD", "Assigned label": "true"}
{"Molecule": "F26I V29A A30D A32V S33K T37E L40A: Gaussia luciferase mutant (protein, SIGNAL (1)..(17), Gaussia luciferase mutant) MGVKVLFALICIAVAEAKPTENNEDINIADVVKNFAETDADADRGKLPGKKLPLEVLKEMEANARKAGCTRGCLICLSHIKCTPKMKKFIPGRCHTYEGDKESAQGGIGEAIVDIPEIPGFKDLEPMEQFIAQVDLCVDCTTGCLKGLANVQCSDLLKKWLPQRCATFASKIQGQVDKIKGAGGD", "Assigned label": "false"}
{"Molecule": "Q152K Q163T S170N G174N K178S A182Y G183A: Gaussia luciferase mutant (protein, SIGNAL (1)..(17), Gaussia luciferase mutant) MGVKVLFALICIAVAEAKPTENNEDFNIVAVASNFATTDLDADRGKLPGKKLPLEVLKEMEANARKAGCTRGCLICLSHIKCTPKMKKFIPGRCHTYEGDKESAQGGIGEAIVDIPEIPGFKDLEPMEQFIAQVDLCVDCTTGCLKGLANVKCSDLLKKWLPTRCATFANKIQNQVDSIKGYAGD", "Assigned label": "true"}

Determine whether this molecule shows Activity of mutant relative to wild-type Gaussia luciferase without the signal peptide lower than 0.9 (ties excluded): K66N H79K P84K E102K S103I E110P L124M: Gaussia luciferase mutant (protein, SIGNAL (1)..(17), Gaussia luciferase mutant) MGVKVLFALICIAVAEAKPTENNEDFNIVAVASNFATTDLDADRGKLPGKKLPLEVLKEMEANARNAGCTRGCLICLSKIKCTKKMKKFIPGRCHTYEGDKKIAQGGIGPAIVDIPEIPGFKDMEPMEQFIAQVDLCVDCTTGCLKGLANVQCSDLLKKWLPQRCATFASKIQGQVDKIKGAGGD
true
